Entries and their inhibition at 20 µg/mL
molecular target: porcine pancreatic PLA2 (Sus scrofa, UniProt P00592); construct: purchased Sigma; assay: MHPLA2 assay: in vitro porcine pancreatic phospholipase A2, mixed micelle design, [s]=10 μm; assay type: biochemical; conditions: dose 20 μ/ml, subs. con. 10
Sequence (P00592 23-146): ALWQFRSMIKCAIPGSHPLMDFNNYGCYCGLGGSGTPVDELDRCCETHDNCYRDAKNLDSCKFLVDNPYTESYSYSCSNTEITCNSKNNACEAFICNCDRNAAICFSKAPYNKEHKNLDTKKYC

compound: CCCCCCCCCCCCCCCC[C@]1(COP(=O)([O-])OCC[N+](C)(C)C)CC(=O)N1
inhibition at 20 µg/mL (%): 0

compound: CCCCCCCCCCCCCCCCOCC(COP(=O)([O-])OCC[N+](C)(C)C)CP(=O)(OCC)OCC (stereo not shown)
inhibition at 20 µg/mL (%): 44

compound: CCCCCCCCCCCCCCCCS(=O)(=O)CCCOP(=O)([O-])OCC[N+](C)(C)C
inhibition at 20 µg/mL (%): 19

compound: CCCCCCCCCCCCCCCCOCC(COP(=O)([O-])OCC[N+](C)(C)C)CC(=O)C(F)(F)CCCCCCCCCCCCCCCC (stereo not shown)
inhibition at 20 µg/mL (%): 9
